Target: AurA (Homo sapiens)
Construct: purchased Carna Bioscience
Sequence (O14965 1-403): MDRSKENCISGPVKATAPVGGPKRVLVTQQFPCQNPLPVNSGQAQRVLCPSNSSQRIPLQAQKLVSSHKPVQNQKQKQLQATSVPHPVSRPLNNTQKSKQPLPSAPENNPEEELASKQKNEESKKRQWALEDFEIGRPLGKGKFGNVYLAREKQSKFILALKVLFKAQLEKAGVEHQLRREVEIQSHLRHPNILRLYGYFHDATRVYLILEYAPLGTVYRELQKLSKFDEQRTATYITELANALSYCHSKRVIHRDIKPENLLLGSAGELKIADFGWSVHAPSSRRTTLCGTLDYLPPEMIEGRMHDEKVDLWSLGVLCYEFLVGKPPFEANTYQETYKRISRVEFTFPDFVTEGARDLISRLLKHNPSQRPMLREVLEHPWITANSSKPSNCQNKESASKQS
Assay: IMAP TR-FRET kinase inhibition assay, AurA
Type: biochemical
Details: 100 ng/mL AurA, FAM-Kemptide 1 µM, ATP 5 µM (Table S2; Figure 3 legend prints mM), TBS reaction buffer, 1 hr, room temperature
PARAMETER: IC50 (mM)

INSERT INTO assay_data (substance, experimental_target, experimental_value) VALUES
  ('H-CDGGSGGGSAELAALEAELAALEGGGGGGGKLEYLKWKLWPLKGW-NH2 [Bip‐3]', 'AurA (Homo sapiens)', 0.103);
